System: Staphylococcus aureus ATCC 29213
Assay type: cell-based
Conditions: ATCC 29213, 24 h
No end group written: not given here.
I'd be grateful if you could share measured MBC, S. aureus ATCC 29213 for these entries.

Check out these entries, answers already filled in.
DLWFGLKTEGELAFVKRTIFDVIYKSAKRKR [ArTh10]	> 128 µg/mL
FMRFGKRFMRFGRFGKSAEVENNIQIAAKQS [LySt2]	> 128 µg/mL

Parameters: items (list). Returns: MBC, S. aureus ATCC 29213 for each item.
1. RVKRFWPLVPVAINTVAAGINLYKAIRRK [Chicken CATH-3, reference compound]
2. SYWWWGFHKNVIDRREAFYADLAEKKKAEN [CaGl1]
3. RFGRFLRKIRRFRPKVTITIQGSARFG [Chicken CATH-2, reference compound]
4. VWEFFEAGAGLRASNASKKIYGVAKRFRR [DiVi1]
5. WLLVLQRGHRLASIKHVCQLSERKR [DaRe1]
6. FWNLNKKKKFFYKTVKNSIGQVILRDMSNN [DiDi2]

Data returned:
2 to 4 µg/mL
> 128 µg/mL
32 µg/mL
> 128 µg/mL
> 128 µg/mL
> 128 µg/mL

###

Test system: Staphylococcus aureus ATCC 29213
Type: cell-based
Conditions: ATCC 29213
No end group written: not given here.
Property: MIC, S. aureus ATCC 29213

WIIQCWWRQVLEKLLAKRRR [HoSa4]	64 to 128 µg/mL
SYWWWGFHKNVIDRREAFYADLAEKKKAEN [CaGl1]	> 128 µg/mL

Parameters: items (list). Returns: MIC, S. aureus ATCC 29213 for each item.
1. RFGRFLRKIRRFRPKVTITIQGSARFG [Chicken CATH-2, reference compound]
2. GLIKRIIRQKR [GaGa2]
3. WLLVLQRGHRLASIKHVCQLSERKR [DaRe1]
4. FMRFGKRFMRFGRFGKSAEVENNIQIAAKQS [LySt2]
5. GLQKLINKIKSQMSRFSTKTNKICGP [HoSa1]

Data returned:
["32 µg/mL", "> 128 µg/mL", "> 128 µg/mL", "> 128 µg/mL", "128 µg/mL"]

Parameters: items (list). Returns: MIC, S. aureus ATCC 29213 for each item.
1. FWNLNKKKKFFYKTVKNSIGQVILRDMSNN [DiDi2]
2. DLWFGLKTEGELAFVKRTIFDVIYKSAKRKR [ArTh10]
3. VWEFFEAGAGLRASNASKKIYGVAKRFRR [DiVi1]

Data returned:
1: > 128 µg/mL; 2: > 128 µg/mL; 3: > 128 µg/mL

Parameters: items (list). Returns: MIC, S. aureus ATCC 29213 for each item.
1. YVSPVAIVKGLNIPL [Ovipin, reference compound]
2. RVKRFWPLVPVAINTVAAGINLYKAIRRK [Chicken CATH-3, reference compound]

Data returned:
> 128 µg/mL
2 µg/mL

###

Tested on: Escherichia coli ATCC 25922
Format: cell-based
Details: broth microdilution (CLSI, adapted for cationic AMPs), MHB, 5 ± 3 × 10^5 CFU/mL, 20–24 h at 37°C, tested 0.25–128 μg/mL; range from three independent experiments in duplicate, one maximum and one minimum data point dropped
No end group written: not given here.
I'd be grateful if you could share measured MIC, E. coli ATCC 25922 for these entries.

Check out these entries, answers already filled in.
VMRSAGSRSSKR [OrSa6, putative AMP mined from UniProt Q5VRI5, Oryza sativa subsp. japonica]	> 128 µg/mL
ARLDVAAEFRKKWNKWALSRGKR [SuSc1]	128 µg/mL
FLEKPPGPLGARPLGGK [MuMu4, putative AMP mined from UniProt Q9Z0L3, Mus musculus]	> 128 µg/mL
GRGRPKGRGRGRPRGRPRGSKR [GoGo1]	64 µg/mL
RIRGHTIKG [DrMe6, putative AMP mined from UniProt O46201, Drosophila melanogaster]	> 128 µg/mL

Parameters: items (list). Returns: MIC, E. coli ATCC 25922 for each item.
1. GVLKKVIRHKR [HoSa6, putative AMP mined from UniProt P24821, Q29116; Homo sapiens, Sus scrofa]
2. WIIQCWWRQVLEKLLAKRRR [HoSa4]
3. RSIIRNGIRTLTWRKETKRKKK [ArTh11]
4. QFFLPMILRLYVSRLFISKL [CaGl2, putative AMP mined from UniProt P05040, Candida glabrata]
5. QVWKRR [HoSa8, putative AMP mined from UniProt Q9BXP8, Homo sapiens]

Data returned:
1: > 128 µg/mL; 2: 32 µg/mL; 3: 64 to 128 µg/mL; 4: > 128 µg/mL; 5: > 128 µg/mL
